TARGET ENTITY: Cytochrome P450 3A5 (Homo sapiens)
Sequence (P20815 whole entry): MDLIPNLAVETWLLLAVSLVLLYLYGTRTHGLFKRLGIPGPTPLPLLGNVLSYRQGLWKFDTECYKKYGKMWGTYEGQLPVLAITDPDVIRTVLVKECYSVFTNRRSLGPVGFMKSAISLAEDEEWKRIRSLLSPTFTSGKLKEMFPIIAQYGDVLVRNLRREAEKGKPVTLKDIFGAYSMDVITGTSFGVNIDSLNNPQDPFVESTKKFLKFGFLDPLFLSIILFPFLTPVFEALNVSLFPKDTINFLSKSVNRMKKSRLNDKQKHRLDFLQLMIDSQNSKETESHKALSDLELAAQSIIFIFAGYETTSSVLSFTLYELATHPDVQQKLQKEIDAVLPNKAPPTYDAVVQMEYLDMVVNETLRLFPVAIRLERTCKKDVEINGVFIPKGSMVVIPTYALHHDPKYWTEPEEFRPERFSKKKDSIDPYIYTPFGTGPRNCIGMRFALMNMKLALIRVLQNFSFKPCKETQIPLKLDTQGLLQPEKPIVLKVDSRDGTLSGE
TEST: Substrate activity at CYP3A5 (unknown origin) assessed as enzyme-mediated compound turnover assessed per pmol protein at 10 uM
Assay type: ADME
EXPERIMENTAL ENDPOINT: Drug metabolism

// solved cases for Drug metabolism follow
Fill in the blank: the reported Drug metabolism of COc1cc2c(c(OC)c1OC)-c1c(cc(OC)c(OC)c1OC)C[C@](C)(O)[C@@H](C)C2 is ____. 1 to 3 pmol/min

How about COc1cc2c(c(O)c1OC)-c1c(cc(OC)c(OC)c1OC)C[C@H](C)[C@H](C)C2 ? 4 to 9 pmol/min

Try this compound next: COc1cc2c(c(OC)c1OC)-c1c(cc(OC)c(OC)c1OC)C[C@H](C)[C@H](C)C2 10 to 15 pmol/min

Quick one: COc1cc2c(c(OC)c1OC)-c1c(cc3c(c1OC)OCO3)C(OC(=O)c1ccccc1)[C@](C)(O)[C@@H](C)C2 (some centres not stated) 1 to 3 pmol/min

Thanks! And COc1cc2c(c(OC)c1OC)-c1c(cc3c(c1OC)OCO3)C[C@H](C)[C@@](C)(O)C2OC(=O)c1ccccc1 (some centres not stated) ? Metabolite_Notdetected

Param item: COc1cc2c(c(OC)c1OC)-c1c(cc3c(c1OC)OCO3)C[C@H](C)[C@@](C)(O)C2O (some centres not stated) 1 to 3 pmol/min

Would you kindly repeat that for C/C=C(/C)C(=O)OC1c2cc(OC)c(OC)c(OC)c2-c2c(cc3c(c2OC)OCO3)C[C@H](C)[C@@]1(C)O (some centres not stated) ? Metabolite_Notdetected

Also need COc1cc2c(c(OC)c1OC)-c1c(cc3c(c1OC)OCO3)C[C@H](C)[C@H](C)C2 , thanks. Metabolite_Notdetected

Next:
Fill in: Drug metabolism of COc1cc2c(c(OC)c1OC)-c1c(cc3c(c1OC)OCO3)C[C@H](C)[C@@](C)(O)C2 is ___ 1 to 3 pmol/min

Try this compound too: COc1c(O)cc2c(c1OC)-c1c(cc(O)c(OC)c1OC)C(O)[C@@H](C)[C@@H](C)C2 (some centres not stated) 1 to 3 pmol/min

Next compound up: COc1c2c(cc3c1-c1c(cc4c(c1OC)OCO4)C[C@H](C)[C@H](C)C3)OCO2 Metabolite_Notdetected

====

Each entry below carries its recorded Drug metabolism.
TARGET ENTITY: Cytochrome P450 3A4 (Homo sapiens, UniProt P08684)
Sequence (P08684 whole entry): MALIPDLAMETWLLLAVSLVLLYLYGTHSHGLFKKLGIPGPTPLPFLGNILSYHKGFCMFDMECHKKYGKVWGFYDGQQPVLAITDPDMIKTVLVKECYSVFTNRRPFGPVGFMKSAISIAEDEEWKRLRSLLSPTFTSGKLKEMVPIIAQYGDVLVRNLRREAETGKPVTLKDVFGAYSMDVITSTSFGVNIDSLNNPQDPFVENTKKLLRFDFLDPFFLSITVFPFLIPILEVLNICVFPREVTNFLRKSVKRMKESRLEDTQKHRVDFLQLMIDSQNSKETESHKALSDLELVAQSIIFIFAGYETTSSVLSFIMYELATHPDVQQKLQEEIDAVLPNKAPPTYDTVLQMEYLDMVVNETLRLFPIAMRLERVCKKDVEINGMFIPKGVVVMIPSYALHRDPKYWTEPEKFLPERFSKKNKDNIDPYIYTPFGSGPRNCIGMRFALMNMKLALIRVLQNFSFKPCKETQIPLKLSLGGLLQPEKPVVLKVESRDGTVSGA
TEST: Substrate activity at CYP3A4 (unknown origin) assessed as enzyme-mediated compound turnover assessed per pmol protein at 10 uM
Format: ADME

Solved cases below.
What value of measured Drug metabolism is listed for COc1cc2c(c(OC)c1OC)-c1c(cc3c(c1OC)OCO3)C[C@H](C)[C@@](C)(O)C2 ? 10 to 15 pmol/min

Check COc1cc2c(c(OC)c1OC)-c1c(cc(O)c(OC)c1OC)C[C@H](C)[C@](C)(O)[C@H]2OC(=O)c1ccccc1 too. 1 to 3 pmol/min

As a next step, examine the molecule that follows.
Would you kindly share the measured Drug metabolism for COc1cc2c(c(OC)c1OC)-c1c(cc3c(c1OC)OCO3)C[C@H](C)[C@@](C)(O)C2O (some centres undefined) ? 4 to 9 pmol/min

====

TEST: Intrinsic clearance in human liver microsomes assessed per mg liver microsome
Assay type: ADME
EXPERIMENTAL PARAMETERS: read-out: CLH
EXPERIMENTAL ENDPOINT: microsomal CLint (µL/min/mg)
Form entry: value (µL/min/mg) — number only.

# lookup: microsomal CLint of COc1cc2c(c(OC)c1OC)-c1c(cc(O)c(OC)c1OC)C[C@H](C)[C@](C)(O)[C@H]2OC(=O)c1ccccc1 50.2

====

TARGET ENTITY: Cytochrome P450 3A4 (Homo sapiens, UniProt P08684)
TEST: Substrate activity at CYP3A4 (unknown origin) assessed as enzyme-mediated compound turnover assessed per pmol protein at 10 uM
Assay type: ADME
EXPERIMENTAL ENDPOINT: Drug metabolism

The cases that follow already have their Drug metabolism on record.
May I ask what Drug metabolism has been recorded for COc1c(O)cc2c(c1OC)-c1c(cc(O)c(OC)c1OC)C(O)[C@@H](C)[C@@H](C)C2 (stereo partly drawn) ? 4 to 9 pmol/min

Consider next the compound C/C=C(/C)C(=O)OC1c2cc(OC)c(OC)c(OC)c2-c2c(cc3c(c2OC)OCO3)C[C@H](C)[C@@]1(C)O (stereo partly drawn) in the same way. Metabolite_Notdetected

Moving on to the next compound: COc1cc2c(c(O)c1OC)-c1c(cc(OC)c(OC)c1OC)C[C@H](C)[C@H](C)C2 10 to 15 pmol/min

Let us now turn to COc1cc2c(c(OC)c1OC)-c1c(cc(OC)c(OC)c1OC)C[C@H](C)[C@H](C)C2 16 to 29 pmol/min

New cases:
Using the record for COc1cc2c(c(OC)c1OC)-c1c(cc3c(c1OC)OCO3)C[C@H](C)[C@H](C)C2 , report its Drug metabolism. Metabolite_Notdetected

Here is the next compound: COc1cc2c(c(OC)c1OC)-c1c(cc3c(c1OC)OCO3)C[C@H](C)[C@@](C)(O)C2OC(=O)c1ccccc1 (stereo partly drawn) Metabolite_Notdetected

COc1cc2c(c(OC)c1OC)-c1c(cc3c(c1OC)OCO3)C(OC(=O)c1ccccc1)[C@](C)(O)[C@@H](C)C2 (stereo partly drawn) , same question. 4 to 9 pmol/min

====

TEST: Drug metabolism in human liver microsomes assessed as Km for 2-O-demethylation
Type: ADME, microsome
EXPERIMENTAL ENDPOINT: Km (µM)
Give the value, in units of µM, as a plain number.

Sample COc1cc2c(c(OC)c1OC)-c1c(cc(O)c(OC)c1OC)C[C@H](C)[C@](C)(O)[C@H]2OC(=O)c1ccccc1 — what was its Km? 4.95
